Catalogue of creatinine readings, one per entry.
Experiment: blood morphology, blood biochemistry and organ weights of mice with 67NR tumor
Settings: Table S3, plasma, mice with 67NR tumor, 50 mg/kg per os; N=9

compound="NS(=O)(=O)Oc1ccc(-c2cn(-c3cccc(Cl)c3)nn2)cc1 [4a]" measure_name=creatinine recorded_measurement="5,75±1,52 umol/L"
compound="NS(=O)(=O)Oc1ccc(-c2cn(-c3ccc(F)c(F)c3F)nn2)cc1 [5e]" measure_name=creatinine recorded_measurement="5,33±1,21 umol/L"
compound="NS(=O)(=O)Oc1ccc(-c2cn(-c3cc(F)cc(F)c3)nn2)cc1 [5l]" measure_name=creatinine recorded_measurement="5,6±1,65 umol/L"
compound="NS(=O)(=O)Oc1ccc(-c2cn(-c3cc(Cl)cc(Cl)c3)nn2)cc1 [4b]" measure_name=creatinine recorded_measurement="4,53±1,48 umol/L"

Entry NS(=O)(=O)Oc1ccc(-c2cn(-c3cccc(F)c3)nn2)cc1 [5g] : reported creatinine = ?
6,51±1,49 umol/L

----------
Catalogue of residual STS activity [%] readings, one per entry.
Target: STS isolated from the human placenta (Homo sapiens, UniProt P08842)
Construct: radioisotope enzymatic assay using STS isolated from the human placenta; from tissue; host or cells: human placenta
Assay: radioisotope enzymatic assay with STS isolated from human placenta and [3H]E1S
Format: biochemical
Details: 0.5 μM inhibitor concentration; substrate [3H]E1S, 3 nM; triplicate
Write it as a number; the unit % goes unstated.

Example entries and their recorded answers appear below.
substance_smiles=NS(=O)(=O)Oc1ccc(-c2cn(-c3cccc(I)c3)nn2)cc1 tested_target="STS isolated from the human placenta (Homo sapiens, UniProt P08842)" recorded_measurement=13.23
substance_smiles=NS(=O)(=O)Oc1ccc(-c2cn(-c3cc(Cl)cc(Cl)c3)nn2)cc1 tested_target="STS isolated from the human placenta (Homo sapiens, UniProt P08842)" recorded_measurement=13.32
substance_smiles=NS(=O)(=O)Oc1ccc(-c2cn(-c3cc(I)cc(I)c3)nn2)cc1 tested_target="STS isolated from the human placenta (Homo sapiens, UniProt P08842)" recorded_measurement=11.78

Kindly consider the entry below.
Entry NS(=O)(=O)Oc1ccc(-c2cn(-c3cc(F)cc(F)c3)nn2)cc1 , system STS isolated from the human placenta (Homo sapiens, UniProt P08842): what residual STS activity [%] was measured?
17.34

----------
Catalogue of remaining activity at 0.1 µM readings, one per entry.
Biological target: STS in MCF-7 cells (Homo sapiens)
Construct: The radioisotope cellular assay was performed using the MCF-7 cell line; endogenous in cells; host or cells: MCF-7
Assay: radioisotope cellular assay with [3H]E1S in MCF-7 cells
Type: cell-based
Details: MCF7, 20 h, read-out: residual STS activity [%] 100 nM
Please provide the amount together with its unit, number first.

compound=NS(=O)(=O)Oc1ccc(-c2cn(-c3ccc(F)c(F)c3F)nn2)cc1 measure_name="remaining activity at 0.1 µM" recorded_measurement=1%

Entry Cc1cc(=O)oc2cc(OS(N)(=O)=O)ccc12 [COUMATE, reference compound] : reported remaining activity at 0.1 µM = ?
51.8%

Entry NS(=O)(=O)Oc1ccc(-c2cn(-c3cc(Cl)cc(Cl)c3)nn2)cc1 : reported remaining activity at 0.1 µM = ?
2%

Entry NS(=O)(=O)Oc1ccc(-c2cn(-c3cccc(Cl)c3)nn2)cc1 : reported remaining activity at 0.1 µM = ?
2.4%

----------
MEASURE_NAME: melting point

compound="Cc1cccc(-n2cc(-c3ccc(OS(N)(=O)=O)cc3)nn2)c1 [4e]" measure_name="melting point" recorded_measurement="212 to 213 °C (dec.)"
compound="NS(=O)(=O)Oc1ccc(-c2cn(-c3cccc(I)c3)nn2)cc1 [4d]" measure_name="melting point" recorded_measurement="228 to 229 °C (dec.)"
compound="CCc1cccc(-n2cc(-c3ccc(OS(N)(=O)=O)cc3)nn2)c1 [4i]" measure_name="melting point" recorded_measurement="223 to 225 °C (dec.)"

Entry COc1cccc(-n2cc(-c3ccc(OS(N)(=O)=O)cc3)nn2)c1 [4g] : reported melting point = ?
210 to 212 °C (dec.)

Entry CC(C)c1cccc(-n2cc(-c3ccc(OS(N)(=O)=O)cc3)nn2)c1 [4j] : reported melting point = ?
202 to 204 °C (dec.)

----------
Biological target: STS isolated from the human placenta (Homo sapiens)
Construct: radioisotope enzymatic assay using STS isolated from the human placenta; from tissue; host or cells: human placenta
Sequence (P08842 22-583): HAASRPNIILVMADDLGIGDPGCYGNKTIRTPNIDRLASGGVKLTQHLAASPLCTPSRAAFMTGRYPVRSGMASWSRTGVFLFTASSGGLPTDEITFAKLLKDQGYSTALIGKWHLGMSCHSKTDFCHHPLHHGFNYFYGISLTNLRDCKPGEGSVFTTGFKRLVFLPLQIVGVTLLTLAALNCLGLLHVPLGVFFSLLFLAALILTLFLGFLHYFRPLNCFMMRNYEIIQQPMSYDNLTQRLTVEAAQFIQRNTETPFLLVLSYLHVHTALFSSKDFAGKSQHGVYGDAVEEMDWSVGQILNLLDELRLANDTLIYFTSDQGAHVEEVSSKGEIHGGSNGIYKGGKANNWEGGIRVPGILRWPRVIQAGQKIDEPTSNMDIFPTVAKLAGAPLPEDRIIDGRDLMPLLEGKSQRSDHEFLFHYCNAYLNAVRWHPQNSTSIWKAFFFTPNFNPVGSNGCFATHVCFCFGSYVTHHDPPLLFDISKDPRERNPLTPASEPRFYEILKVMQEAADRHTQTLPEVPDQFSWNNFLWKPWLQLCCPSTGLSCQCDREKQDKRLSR
Experiment: radioisotope enzymatic assay with STS isolated from human placenta and [3H]E1S
Format: biochemical
Conditions: 0.5 μM inhibitor concentration; substrate [3H]E1S, 3 nM; triplicate; read-out: residual STS activity [%]
Catalogue of remaining activity at 0.5 µM readings, one per entry.
Write it as a number; the unit % goes unstated.

Example entries and their recorded answers appear below.
substance_smiles=NS(=O)(=O)Oc1ccc(-c2cn(-c3cccc(Br)c3)nn2)cc1 tested_target="STS isolated from the human placenta (Homo sapiens)" recorded_measurement=24.1
substance_smiles=COc1cc(OC)cc(-n2cc(-c3ccc(OS(N)(=O)=O)cc3)nn2)c1 tested_target="STS isolated from the human placenta (Homo sapiens)" recorded_measurement=55.1
substance_smiles=COc1cccc(-n2cc(-c3ccc(OS(N)(=O)=O)cc3)nn2)c1 tested_target="STS isolated from the human placenta (Homo sapiens)" recorded_measurement=43.4
substance_smiles=Cc1cccc(-n2cc(-c3ccc(OS(N)(=O)=O)cc3)nn2)c1 tested_target="STS isolated from the human placenta (Homo sapiens)" recorded_measurement=34.2

Entry NS(=O)(=O)Oc1ccc(-c2cn(-c3cccc(I)c3)nn2)cc1 : reported remaining activity at 0.5 µM = ?
13.2

Entry CC(C)c1cccc(-n2cc(-c3ccc(OS(N)(=O)=O)cc3)nn2)c1 : reported remaining activity at 0.5 µM = ?
18.1

Entry NS(=O)(=O)Oc1ccc(-c2cn(-c3cccc([N+](=O)[O-])c3)nn2)cc1 : reported remaining activity at 0.5 µM = ?
28.9
